- Target or test system: T1, Human Galectin-3 protein (Acro Biosystems, GA3-H5129) (human, UniProt P17931 2-250)
- T1 construct: bought; also called Gal3-ECD-His; Gal3-His; not shown: linker-spaced 6-histidine tag
- T1 sequence (P17931 2-250): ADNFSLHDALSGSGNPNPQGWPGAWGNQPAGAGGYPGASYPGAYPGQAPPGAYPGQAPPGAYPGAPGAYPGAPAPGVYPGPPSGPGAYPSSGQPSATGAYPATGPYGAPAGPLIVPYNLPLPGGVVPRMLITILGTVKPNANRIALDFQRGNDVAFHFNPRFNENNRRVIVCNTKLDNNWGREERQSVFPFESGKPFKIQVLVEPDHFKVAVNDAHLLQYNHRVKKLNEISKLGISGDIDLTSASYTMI
- Assay protocol: ELISA, INSR binding to coated Gal3 with 3 ug/mL antibody
Observation type: inhibition of Gal3-INSR binding, %

Binder | inhibition of Gal3-INSR binding, %
12G5.D7 (antibody, V domains shown) VH: QVQLKQSGAELVRPGASVKLSCKASGYTFTDYYINWVKQRPGQGLEWIARIYPGTGNTDYNEKFKGRATLTAEKSSSTAYMQLSSLTSEDSAVYFCARFAYYYGSGGYFDYWGHGTTLTVSS VL: DILMTQSPSSMSVSLGDTVSITCHASQGINSNMGWLQQKPGKSFKGLIYHATNLEDGVPSRFSGSGSGADYSLTISSLESEDFADYYCVQYAQFPPTFGSGTKLEIK | ≤ 30%

# ---- query binder ----
I would be grateful if you could share the reported inhibition of Gal3-INSR binding, % for 13G4.2F8 (antibody, V domains shown) VH: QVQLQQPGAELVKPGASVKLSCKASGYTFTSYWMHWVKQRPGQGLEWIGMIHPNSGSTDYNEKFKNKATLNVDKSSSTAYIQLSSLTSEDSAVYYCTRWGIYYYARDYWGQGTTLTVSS VL: DIVMTQSQKFMSTSVGERVSITCKASQNVGTNVAWYQQKAGQSLELLIYGASNRHTGVPDRFTGSGSGTDFTLTITNVQSEDMTNYFCEQYSNFPLTFGAGTKLELKR .
≤ 30%
